system: DMS-273; assay: NCI tumour cell line growth inhibition, 48 h
The source made the active and inactive calls. No stated cut-off is given here; in the data, active = GI50 up to about 1.1 µM and inactive = higher.
Answer with one of the outcomes 1 = active, 0 = inactive

Example entries and their recorded answers appear below.
compound	assigned-class
Cn1c(=O)ccc2cc(C(=O)c3ccccc3)ccc21	0
Cc1c(C(=O)C/C(=N/NC(=O)C[n+]2ccccc2)C(=O)Nc2ccccc2)[n+]([O-])c2ccccc2[n+]1[O-]	0

Record lookup: outcome of this test for Cn1cnc([N+](=O)[O-])c1Sc1nnnn1-c1ccccc1 ?
0

Record lookup: outcome of this test for Oc1cccc2c1NC1=C(CCC/C1=C\c1ccccc1)C2 ?
0

Record lookup: outcome of this test for COc1cc2c(cc1Oc1ccc(OC)c3c1CC1c4c(cc(OC)c(OC)c4-3)CCN1C)CC1c3c(cc(OC)c(OC)c3-2)CCN1C (stereo unspecified) ?
1

Record lookup: outcome of this test for COc1cc(-c2cc(=O)c3ccccc3o2)ccc1N ?
0

Record lookup: outcome of this test for c1ccc(COc2ccc3[nH]c4c5c6ccccc6nc-5c[nH]c4c3c2)cc1 ?
0

Record lookup: outcome of this test for C[C@@H](CO)OCOCc1ccccc1 ?
0
